Target: Proto-oncogene tyrosine-protein kinase receptor Ret (Homo sapiens) (UniProt P07949);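 also: reported figure is the mean of RET inhibition measurements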
Sequence (P07949 whole entry): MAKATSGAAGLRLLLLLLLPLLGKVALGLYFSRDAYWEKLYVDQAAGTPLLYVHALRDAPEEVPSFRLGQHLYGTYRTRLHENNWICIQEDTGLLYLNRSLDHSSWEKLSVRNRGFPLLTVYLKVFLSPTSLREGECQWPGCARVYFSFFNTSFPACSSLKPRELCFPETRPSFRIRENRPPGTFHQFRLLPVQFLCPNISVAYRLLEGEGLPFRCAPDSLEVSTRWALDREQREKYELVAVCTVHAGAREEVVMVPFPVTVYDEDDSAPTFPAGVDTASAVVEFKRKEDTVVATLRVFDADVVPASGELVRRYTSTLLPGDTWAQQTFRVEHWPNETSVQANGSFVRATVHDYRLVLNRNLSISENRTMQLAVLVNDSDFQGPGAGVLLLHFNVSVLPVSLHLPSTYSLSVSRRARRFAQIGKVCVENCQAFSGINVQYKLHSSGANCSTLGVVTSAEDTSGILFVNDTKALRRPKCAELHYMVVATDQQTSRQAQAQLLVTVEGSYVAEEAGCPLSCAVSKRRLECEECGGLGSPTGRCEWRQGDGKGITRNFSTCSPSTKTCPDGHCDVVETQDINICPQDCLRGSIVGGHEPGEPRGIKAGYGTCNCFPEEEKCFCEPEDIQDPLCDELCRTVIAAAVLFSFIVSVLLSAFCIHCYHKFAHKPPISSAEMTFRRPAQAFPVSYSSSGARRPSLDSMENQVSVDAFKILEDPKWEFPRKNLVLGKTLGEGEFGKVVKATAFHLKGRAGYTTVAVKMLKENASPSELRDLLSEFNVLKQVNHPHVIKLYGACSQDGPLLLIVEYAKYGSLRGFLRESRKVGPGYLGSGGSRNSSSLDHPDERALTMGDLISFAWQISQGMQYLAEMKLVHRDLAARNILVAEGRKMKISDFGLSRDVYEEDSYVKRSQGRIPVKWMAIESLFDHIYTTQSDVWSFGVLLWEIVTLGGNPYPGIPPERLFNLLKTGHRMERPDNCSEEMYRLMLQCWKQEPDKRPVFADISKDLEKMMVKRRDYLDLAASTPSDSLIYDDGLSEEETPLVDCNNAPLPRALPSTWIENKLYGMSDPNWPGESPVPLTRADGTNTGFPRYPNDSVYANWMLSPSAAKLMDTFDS
Settings: at 0.1 µM
The following molecules are shown together with reported inhibition values.
API: value field is a number in %; no unit string.

Examples with their reported inhibition follow.
CN(c1ccc(NC(=O)Nc2ccc(OC(F)(F)F)cc2)cc1)c1ccnc(Nc2cccc(S(N)(=O)=O)c2)n1; 79.8
NS(=O)(=O)c1ccc(NC=C2C(=O)Nc3ccc4ncsc4c32)cc1; 47.7
CN1CCN(C(=O)c2ccc(NC(=O)Nc3ccc(N(C)c4ccnc(Nc5ccc(CS(C)(=O)=O)cc5)n4)cc3)cc2)CC1; 38.8
COC(=O)Nc1nc2cc(Oc3ccc(NC(=O)Nc4cccc(Br)c4)cc3)ccc2[nH]1; 69.7
CCn1c(-c2nonc2N)nc2c(C#CC(C)(C)O)nc(OCCNC)cc21; 8.91

Can you share its inhibition? I mean this molecule: CN(C)C(=O)O[C@H]1CN[C@H](C#Cc2cc3ncnc(Nc4ccc(OCc5cccc(F)c5)c(Cl)c4)c3s2)C1
4.97

Subsequent entry: CCCN1CCCC(c2ccc(Nc3nc(Nc4cc(F)ccc4C(N)=O)c4cc[nH]c4n3)c(OC)c2)C1 (stereo not given)
8.63

Subsequent entry: CS(=O)(=O)CCNCc1nc(-c2ccc3ncnc(Nc4ccc(OCc5cccc(C(F)(F)F)c5)cc4)c3c2)cs1
5.26

Subsequent entry: NS(=O)(=O)c1ccc(Nc2cc(-c3cccc(O)c3)n[nH]2)cc1
6.46

Subsequent entry: Cc1ccc(O)cc1Nc1ccnc2ccc(S(C)(=O)=O)cc12
81.8
